Test system: JAK2(JH1domain-catalytic)
Assay: KINOMEscan kinase binding assay
Conditions: JAK2(JH1domain-catalytic); at 1 μM
Protocol: Kinase binding assays were performed at Eurofins/DiscoveRx using the general KINOMEscan Protocol (Fabian, M. A. et al., “A small molecule-kinase interaction map for clinical kinase inhibitors,” Nat. Biotechnol. 2005, 23(3):329-36). […] The kinase concentration in the eluates was measured by qPCR. […] Dissociation constants (Kds) for test compound-kinase interactions were calculated by measuring the amount of kinase captured on the solid support as a function of the test compound concentration.
quantity name: % Ctrl

> print(dat)
                               smiles.entry               study.target  quantity.name  result
1  Cc1cc2c([nH]1)/C=C1\C(=O)Nc3c(Cl)cc(cc31)-c1cn(C)nc1COC[C@@H](C)N(C)C2=O  JAK2(JH1domain-catalytic)         % Ctrl     89%
2  C[C@@H]1COCc2nn(C)cc2-c2cc(Cl)c3c(c2)/C(=C/c2[nH]ccc2C(=O)N1)C(=O)N3  JAK2(JH1domain-catalytic)         % Ctrl     57%
3  Cc1cc2c([nH]1)/C=C1\C(=O)Nc3ccc(cc31)-c1c(nn(C)c1C)COCCN(C)C2=O  JAK2(JH1domain-catalytic)         % Ctrl     91%
4  Cc1cc2c([nH]1)/C=C1\C(=O)Nc3ccc(cc31)-c1c(nn(C)c1C)OCCCN(C)C2=O  JAK2(JH1domain-catalytic)         % Ctrl     98%
5  Cc1cc2c([nH]1)/C=C1\C(=O)Nc3c(Cl)cc(cc31)-c1cn(C)nc1COC[C@@H](C)NC2=O  JAK2(JH1domain-catalytic)         % Ctrl     93%
